Data origin: patent US12338199B2

# system: T1, His9-hMSR1 (human MSR1 extracellular domain) (Homo sapiens, UniProt P21757)
# T1 construct: human MSR1 extracellular domain expressed with a N-terminal nonahistidine tag; purchased R&D Systems 2708-MS
# T1 sequence (P21757 77-451 limits assumed): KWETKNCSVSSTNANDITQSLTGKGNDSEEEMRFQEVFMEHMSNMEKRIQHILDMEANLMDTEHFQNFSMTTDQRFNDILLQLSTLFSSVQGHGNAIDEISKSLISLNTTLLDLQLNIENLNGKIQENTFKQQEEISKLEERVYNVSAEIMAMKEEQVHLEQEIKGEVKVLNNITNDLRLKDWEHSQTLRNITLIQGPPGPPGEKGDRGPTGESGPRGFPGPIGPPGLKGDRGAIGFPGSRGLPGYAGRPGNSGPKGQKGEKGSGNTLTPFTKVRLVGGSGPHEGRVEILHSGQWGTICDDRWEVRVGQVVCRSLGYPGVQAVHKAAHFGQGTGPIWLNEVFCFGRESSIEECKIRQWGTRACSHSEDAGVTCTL
# method notes: Biacore surface plasmon resonance binding kinetics
# assay context: 25° C.; * = no dissociation observed, kd fixed at 1.00E−05
measured property: kd (s⁻¹)
The response must be a number in s⁻¹ with no trailing unit.

Worked examples, 2 molecules total:
molecule	units label	reading
H1H27729P-N297Q (antibody, V domains shown) VH: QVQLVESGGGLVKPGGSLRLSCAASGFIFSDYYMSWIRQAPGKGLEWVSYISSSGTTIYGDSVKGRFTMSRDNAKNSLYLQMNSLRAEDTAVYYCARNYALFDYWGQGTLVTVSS VL: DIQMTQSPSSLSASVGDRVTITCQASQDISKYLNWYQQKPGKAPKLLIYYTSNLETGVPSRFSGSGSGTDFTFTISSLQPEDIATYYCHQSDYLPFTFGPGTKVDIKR	s⁻¹	0.000906
H1H27731P-N297Q (antibody, V domains shown) VH: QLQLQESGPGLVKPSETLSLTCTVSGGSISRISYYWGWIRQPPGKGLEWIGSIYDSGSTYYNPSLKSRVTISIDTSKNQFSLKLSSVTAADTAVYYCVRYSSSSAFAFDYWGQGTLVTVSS VL: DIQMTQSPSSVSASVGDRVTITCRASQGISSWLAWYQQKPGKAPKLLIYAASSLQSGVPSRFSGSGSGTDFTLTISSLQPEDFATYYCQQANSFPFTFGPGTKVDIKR	s⁻¹	1e-05

Attention now turns to another entry.
IN: Sample H1H27739P-N297Q (antibody, V domains shown) VH: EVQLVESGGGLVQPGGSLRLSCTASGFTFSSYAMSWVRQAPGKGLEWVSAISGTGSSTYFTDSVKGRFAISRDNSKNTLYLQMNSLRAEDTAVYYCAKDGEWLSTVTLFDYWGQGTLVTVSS VL: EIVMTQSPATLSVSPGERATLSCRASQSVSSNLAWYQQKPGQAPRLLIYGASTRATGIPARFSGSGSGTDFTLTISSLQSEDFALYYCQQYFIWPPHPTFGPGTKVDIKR — what was its kd?
OUT: 0.000555
